From: ChEMBL document CHEMBL3763120

Assay Procedure: Volume of distribution at steady state in Sprague-Dawley rat plasma at 2 mg/kg, iv by LC-MS/MS analysis
Assay type: ADME, organism-based
Condition Summary: Sprague-Dawley, plasma, read-out: Vdss
Measured Metric: log10 of Vd (log10 of the value in L/kg)
The common logarithm of Vd in L/kg is what is listed.

* O=C1Cc2cc(S(=O)(=O)NNc3ccc(Br)cc3)ccc2N1 | 0.08

Give log10 of Vd for each listed item.
1. CC(=O)Nc1ccc(S(=O)(=O)NNc2ccc(Br)cc2)cc1
2. O=S(=O)(NNc1ccc(Br)cc1)c1ccc2[nH]c(O)nc2c1
3. CC1(C)C(=O)Nc2ccc(S(=O)(=O)NNc3ccc(Br)cc3)cc21
4. O=C1CCCN1c1ccc(S(=O)(=O)NNc2ccc(Br)cc2)cc1

[out]
1. 0.18
2. 0.78
3. 1.11
4. 0.00
